# METHOD SUMMARY: Log P by HPLC on reversed phase columns (EEC directive 79/831 Annex V.A8)
# Type: physicochemical
# CONDITION PARAMETERS: LogP method [a]; compounds of formula (I), Table 1.1
VALUE TYPE: LogP

See these solved cases before continuing.
MOLECULE	LogP
CCOC(=O)CNC(=O)c1sc(Br)c(Br)c1F	2.97^[a]
CCOC(=O)CCNC(=O)c1cc(F)c(Br)s1	2.47^[a]
CCOC(=O)CNC(=O)c1sc(Br)c(Cl)c1F	2.92^[a]
CCOC(=O)C(CC(C)C)NC(=O)c1cc(Br)c(Cl)s1 (stereo not drawn)	4.23^[a]
CCOC(=O)C1(NC(=O)c2sc(Br)c(Br)c2F)CCCC1	4.21^[a]

Note: attention shifts to another entry.
Documented LogP of COC(=O)C(CC(F)F)NC(=O)c1cc(Cl)c(Br)s1 (stereo not drawn) : 2.96^[a]

* * *

# METHOD SUMMARY: Log P by HPLC on reversed phase columns (EEC directive 79/831 Annex V.A8)
# Type: physicochemical
# CONDITION PARAMETERS: method [a]; compounds of formula (I), Table 1.1
# Procedure: In the above tables, measurement of Log P values was performed according to EEC directive 79/831 Annex V.A8 by HPLC (High Performance Liquid Chromatography) on reversed phase columns with the following methods: • ^[a] […] Lambda-max-values were determined using UV-spectra from 200 nm to 400 nm and the peak values of the chromatographic signals.
The entries below are paired with their reported LogP.

See these solved cases before continuing.
COMPOUND	LogP
CCSC(=O)C(CC(C)C)NC(=O)c1sc(Cl)c(Br)c1C (racemic)	5.03^[a]
COC(=O)C1(NC(=O)c2sc(Br)c(Br)c2F)CSC1	3.19^[a]
COC(=O)C(NC(=O)c1sc(Cl)c(Br)c1C)C1CC1 (centres unmarked)	3.39^[a]
COC(=O)C(CC(F)F)NC(=O)c1sc(Cl)c(Br)c1C (centres unmarked)	3.33^[a]

Note: attention shifts to another entry.
Documented LogP of COC(=O)C(CC(F)F)NC(=O)c1sc(Br)c(Br)c1I (centres unmarked) : 3.60^[a]

* * *

# METHOD SUMMARY: Log P by HPLC on reversed phase columns (EEC directive 79/831 Annex V.A8)
# Assay type: physicochemical
# CONDITION PARAMETERS: method [a]
The entries below are paired with their reported LogP.

See these solved cases before continuing.
COMPOUND	LogP
CCOC(=O)C1(NC(=O)c2sc(Br)c(Br)c2C#N)CC1	2.73^[a]
COC(=O)C(CCSC)NC(=O)c1sc(C#N)c(Cl)c1C (stereo not shown)	3.03^[a]
O=C(NC1(C(=O)O)CC1)c1cc(Br)c(Cl)s1	2.02^[a]

Documented LogP of CCOC(=O)CNC(=O)c1sc(Br)c(C(F)F)c1Br : 2.92^[a]

Documented LogP of CCOC(=O)CC[C@H](NC(=O)c1sc(Br)c(Br)c1F)C(=O)OCC : 3.84^[a]

* * *

The entries below are paired with their reported LogP.
# METHOD SUMMARY: Log P by HPLC on reversed phase columns (EEC directive 79/831 Annex V.A8)
# Assay type: physicochemical
# CONDITION PARAMETERS: method marker [a] given with each value; Table 1.1, compounds of formula (I)
# Protocol: In the above tables, measurement of Log P values was performed according to EEC directive 79/831 Annex V.A8 by HPLC (High Performance Liquid Chromatography) on reversed phase columns with the following methods: • ^[a] […] Lambda-max-values were determined using UV-spectra from 200 nm to 400 nm and the peak values of the chromatographic signals.

COMPOUND	REPORTED MEASUREMENT
COC(=O)C(C)(C)NC(=O)c1sc(Cl)c(Cl)c1C(F)F	3.16^[a]
CC(C)(NC(=O)c1sc(Cl)c(Br)c1Cl)C(=O)O	2.80^[a]
CCOC(=O)CN(C(=O)c1sc(Cl)c(Cl)c1Br)C1CC1	3.81^[a]

Documented LogP of Cc1c(C(=O)NCC(=O)Oc2ccccc2)sc(C#N)c1Br : 3.10^[a]

Documented LogP of CCOC(=O)C1(NC(=O)c2sc(Br)c(Cl)c2C)CSC1 : 3.62^[a]

* * *

# METHOD SUMMARY: Log P by HPLC on reversed phase columns (EEC directive 79/831 Annex V.A8)
# Assay type: physicochemical
# CONDITION PARAMETERS: reversed phase HPLC columns, value in preparation example, method not marked
Please use Satisfied for chromatographic logP under 3 and Not satisfied for everything else, ties included.

Here are 5 molecules together with their reported answers.
SMILES DATA	ASSIGNED LABEL
O=C(NC1(C(=O)O)CCC1)c1sc(Br)c(Br)c1F	Satisfied
CCSC(=O)C1(NC(=O)c2sc(Br)c(Br)c2I)CC1	Not satisfied
CCOC(=O)[C@H](CC(C)C)NC(=O)c1sc(Cl)c(Cl)c1C#N	Not satisfied
NC(=S)CNC(=O)c1sc(Br)c(Br)c1F	Satisfied
CCOC(=O)c1sc(Cl)c(Cl)c1C#N	Not satisfied

Problem: A record lists CCOC(=O)CNC(=O)c1sc(C)c(Cl)c1F . Is its chromatographic logP below 3?
Solution: Satisfied

Problem: A record lists CCOC(=O)CNC(=O)c1sc(C#N)c(Br)c1C . Is its chromatographic logP below 3?
Solution: Satisfied

Problem: A record lists COC(=O)c1cc(Cl)c(C#N)s1 . Is its chromatographic logP below 3?
Solution: Satisfied

Problem: A record lists CCOC(=O)C(C)(C)NC(=O)c1sc(Cl)c(Cl)c1Br . Is its chromatographic logP below 3?
Solution: Not satisfied

Problem: A record lists N#Cc1c(C(=O)O)sc(Cl)c1Cl . Is its chromatographic logP below 3?
Solution: Satisfied

Problem: A record lists NC(=O)CNC(=O)c1sc(Br)c(Br)c1F . Is its chromatographic logP below 3?
Solution: Satisfied

Problem: A record lists O=C(O)CNC(=O)c1sc(Br)c(Br)c1F . Is its chromatographic logP below 3?
Solution: Satisfied

Problem: A record lists COC(=O)c1sc(Br)c(Br)c1C(F)F . Is its chromatographic logP below 3?
Solution: Not satisfied

* * *

# METHOD SUMMARY: Log P by HPLC on reversed phase columns (EEC directive 79/831 Annex V.A8)
# Format: physicochemical
# CONDITION PARAMETERS: method [a]: LC-UV, acidic range, 0.1% formic acid in water and acetonitrile
VALUE TYPE: LogP

See these solved cases before continuing.
MOLECULE	LogP
O=C(O)c1cc(Br)c(C(F)(F)F)s1	2.46^[a]
N#Cc1sc(C(=O)O)c(Br)c1Br	1.66^[a]
O=C(NC1CCSC1=O)c1sc(Cl)c(Cl)c1Br (stereo not drawn)	3.25^[a]

Note: attention shifts to another entry.
Documented LogP of CC(C)COC(=O)c1cc(Cl)c(Br)s1 : 5.28^[a]

* * *

# METHOD SUMMARY: Log P by HPLC on reversed phase columns (EEC directive 79/831 Annex V.A8)
# Assay type: physicochemical
# CONDITION PARAMETERS: method [a]
VALUE TYPE: LogP

See these solved cases before continuing.
MOLECULE	REPORTED MEASUREMENT
CCSC(=O)C1(NC(=O)c2sc(Cl)c(Cl)c2C)CC1	4.08^[a]
O=C(NC1(C(=O)OC2CCC2)CCC1)c1sc(Cl)c(Cl)c1Br	4.93^[a]
COC(=O)C1(NC(=O)c2sc(C#N)c(Br)c2C)CC1	2.26^[a]
CCOC(=O)C(COC)NC(=O)c1sc(Br)c(Cl)c1C (centres unmarked)	3.42^[a]

Note: attention shifts to another entry.
Documented LogP of CCCCOC(=O)C1(NC(=O)c2sc(Br)c(Br)c2Cl)CCC1 : 5.20^[a]

* * *

# METHOD SUMMARY: Log P by HPLC on reversed phase columns (EEC directive 79/831 Annex V.A8)
# Assay type: physicochemical
# CONDITION PARAMETERS: method marked [a]
VALUE TYPE: LogP

Documented LogP of O=C(NC(C(=O)NC(C(=O)O)C1CC1)C1CC1)c1sc(Cl)c(Cl)c1Br (stereo not shown) : 2.97^[a]

Documented LogP of CCOC(=O)C(NC(=O)c1sc(Br)c(Cl)c1C)C1CC1 (stereo not shown) : 3.77^[a]

Documented LogP of N#CCNC(=O)c1sc(Br)c(Br)c1C(F)(F)F : 2.61^[a]

* * *

The entries below are paired with their reported LogP.
# METHOD SUMMARY: Log P by HPLC on reversed phase columns (EEC directive 79/831 Annex V.A8)
# Type: physicochemical
# CONDITION PARAMETERS: method [a]

See these solved cases before continuing.
COMPOUND	VALUE TYPE	REPORTED MEASUREMENT
O=C(NC1(C(=O)OCC2CC2)CCC1)c1sc(Cl)c(Cl)c1Br	LogP	4.78^[a]
CCCOC(=O)C1(NC(=O)c2sc(Cl)c(Br)c2F)CC1	LogP	3.52^[a]
CCOC(=O)C(NC(=O)c1sc(Cl)c(Br)c1F)C(C)C (centres unmarked)	LogP	4.40^[a]
O=C(O)CNC(=O)c1sc(Br)c(Br)c1F	LogP	2.01^[a]
CCOC(=O)CN(OC)C(=O)c1sc(Br)c(Br)c1Cl	LogP	3.67^[a]
CCOC(=O)CNC(=O)c1sc(Cl)c(Br)c1Br	LogP	3.35^[a]
CCCOC(=O)C1(NC(=O)c2sc(Br)c(Cl)c2F)CC1	LogP	3.56^[a]
CCOC(=O)C(Cc1c[nH]c2ccccc12)NC(=O)c1sc(Br)c(Cl)c1C (centres unmarked)	LogP	4.11^[a]

Documented LogP of COC(=O)CNC(=O)c1sc(Br)c(C(F)F)c1Br : 2.56^[a]

Documented LogP of O=C(O)CNC(=O)c1cc(Br)c(Cl)s1 : 1.81^[a]

Documented LogP of CCOC(=O)C(CCSC)NC(=O)c1sc(Cl)c(Br)c1Cl (centres unmarked) : 4.47^[a]
